molecular target: P2Y purinoceptor 4 (Homo sapiens); assay: Agonist activity at human P2Y4 receptor expressed in human 1321N1 cells assessed as concentration required to 50% maximal response of compound 3 at 10 uM by fura2/AM assay; assay type: functional, cell-based
Sequence (P51582 whole entry): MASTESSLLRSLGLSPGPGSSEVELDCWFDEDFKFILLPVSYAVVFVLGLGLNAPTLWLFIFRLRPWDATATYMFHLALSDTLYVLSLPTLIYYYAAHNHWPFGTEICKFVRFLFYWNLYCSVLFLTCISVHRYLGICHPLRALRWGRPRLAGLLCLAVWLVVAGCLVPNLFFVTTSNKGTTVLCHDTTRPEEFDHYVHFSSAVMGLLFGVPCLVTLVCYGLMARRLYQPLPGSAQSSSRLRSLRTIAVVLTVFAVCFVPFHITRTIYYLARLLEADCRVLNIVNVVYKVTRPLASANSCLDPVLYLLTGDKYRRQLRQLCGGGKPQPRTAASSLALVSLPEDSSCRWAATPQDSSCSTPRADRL
readout: EC50 (nM)
Your answer should be a plain number; it is taken to be in nM.

Ask: Form field: EC50 recorded for O=c1[nH]c(=O)n([C@@H]2O[C@H](COP(=O)(O)OP(=O)(O)O)[C@@H](O)[C@H]2O)cc1F with P2Y purinoceptor 4 (Homo sapiens) (enter value)
Result: 3500

Ask: Form field: EC50 recorded for O=c1[nH]c(=O)n([C@@H]2O[C@H](COP(=O)(O)OP(=O)(O)OP(=O)(O)O)[C@@H](O)[C@H]2O)cc1F with P2Y purinoceptor 4 (Homo sapiens) (enter value)
Result: 600

---

target: P2Y purinoceptor 2 (Homo sapiens, UniProt P41231); assay: Agonist activity at human P2Y2 receptor expressed in human 1321N1 cells assessed as calcium elevation by fura2/AM assay; type: functional, cell-based; details: read-out: EC50
Sequence (P41231 whole entry): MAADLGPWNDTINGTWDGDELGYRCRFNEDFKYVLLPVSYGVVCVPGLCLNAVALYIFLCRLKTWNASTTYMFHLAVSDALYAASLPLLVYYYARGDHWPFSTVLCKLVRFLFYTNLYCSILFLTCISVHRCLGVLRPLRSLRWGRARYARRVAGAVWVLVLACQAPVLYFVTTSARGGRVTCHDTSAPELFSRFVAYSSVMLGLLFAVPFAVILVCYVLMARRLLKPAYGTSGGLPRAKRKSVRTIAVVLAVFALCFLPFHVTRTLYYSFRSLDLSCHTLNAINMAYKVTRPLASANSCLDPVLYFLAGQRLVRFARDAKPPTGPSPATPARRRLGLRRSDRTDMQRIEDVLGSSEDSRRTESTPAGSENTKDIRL
readout: pEC50
// pEC50 is dimensionless: -log10 of concentration (M)

Study these solved cases before continuing.
>  <molecule>
COc1cn([C@@H]2O[C@H](COP(=O)(O)OP(=O)(O)OP(=O)(O)O)[C@@H](O)[C@H]2O)c(=O)[nH]c1=O

>  <pEC50>
5.70

$$$$
>  <molecule>
Nc1ccn([C@H]2C[C@H](O)[C@@H](COP(=O)(O)OP(=O)(O)OP(=O)(O)OP(=O)(O)OC[C@H]3O[C@@H](n4ccc(=O)[nH]c4=O)[C@H](O)[C@@H]3O)O2)c(=O)n1 [DENUFOSOL]

>  <pEC50>
6.66

$$$$
>  <molecule>
O=c1ccn([C@@H]2O[C@H](COP(=O)(O)OP(=O)(O)OP(=O)(O)O)[C@@H](O)[C@H]2O)c(=O)[nH]1 [URIDINE TRIPHOSPHATE]

>  <pEC50>
7.00

$$$$
>  <molecule>
O=c1[nH]c(=O)n([C@@H]2O[C@H](COP(=O)(O)OP(=O)(O)OP(=O)(O)O)[C@@H](O)[C@H]2O)cc1F

>  <pEC50>
5.22

$$$$
>  <molecule>
O=c1[nH]c(=O)n([C@@H]2O[C@H](COP(=O)(O)OP(=O)(O)OP(=O)(O)O)[C@@H](O)[C@H]2O)cc1Br

>  <pEC50>
5.69

$$$$

Let us move to another entry and its pEC50.
Ask: Field request: pEC50 | item: COc1cc(=O)[nH]c(=O)n1[C@@H]1O[C@H](COP(=O)(O)OP(=O)(O)OP(=O)(O)O)[C@@H](O)[C@H]1O
Result: 5.52

---

molecular target: P2Y purinoceptor 4 (Homo sapiens); test: Agonist activity at human P2Y4 receptor expressed in human 1321N1 cells assessed as calcium elevation by fura2/AM assay; assay type: functional, cell-based; conditions: read-out: EC50
EC50 values by entry
Your answer should be a plain number; it is taken to be in µM.

>  <molecule>
O=c1[nH]c(=O)n([C@@H]2O[C@H](COP(=O)(O)OP(=O)(O)OP(=O)(O)O)[C@@H](O)[C@H]2O)cc1Br

>  <assayedTarget>
P2Y purinoceptor 4 (Homo sapiens)

>  <uom>
µM

>  <reading>
10

$$$$

Let us move to another entry and its EC50.
Ask: Form field: EC50 recorded for O=c1ccn([C@@H]2O[C@H](COP(=O)(O)OP(=O)(O)OP(=O)(O)O)[C@@H](O)[C@H]2O)c(=O)[nH]1 [URIDINE TRIPHOSPHATE] with P2Y purinoceptor 4 (Homo sapiens) (enter value)
Result: 0.5
